tested on: A431; experiment: Dose-dependent change in panel protein levels by western blot; format: cell-based, human; conditions: dose-dependent, 16 h, western blot; note: key: (+) for increase; (−) for decrease; N.C.: (N.C) for no change; (~) for not detected
observed_property: TROP-2 protein level change

These solved cases illustrate the format of a correct answer.
[[record]]
compound = "COc1cc2ncnc(Nc3ccc(F)c(Cl)c3)c2cc1OCCCN1CCOCC1 [gefitinib]"
reported_result = "+"

[[record]]
compound = "C#Cc1cccc(Nc2ncnc3cc(OCCOC)c(OCCOC)cc23)c1 [erlotinib]"
reported_result = "+"

[[record]]
compound = "COc1cccc(-c2cc(=O)c3ccccc3o2)c1N [PD98059]"
reported_result = "N.C."

[[record]]
compound = "O=c1[nH]c2ccccc2n1C1CCN(Cc2ccc(-c3nc4cc5[nH]cnc5cc4nc3-c3ccccc3)cc2)CC1 [A6730]"
reported_result = "N.C."


# ---- query compound ----
[Q] Supply TROP-2 protein level change value. Item: CC(=O)O[C@H]1C(=O)[C@@]2(C)[C@H]([C@H](OC(=O)c3ccccc3)[C@]3(O)C[C@H](OC(=O)[C@H](O)[C@@H](NC(=O)c4ccccc4)c4ccccc4)C(C)=C1C3(C)C)[C@]1(OC(C)=O)CO[C@@H]1C[C@@H]2O [paclitaxel]
[A] N.C.

Value source: patent US9588122B2
